Recorded concentration, one value per entry.
- System: Mus musculus
- experiment_summary: Total plasma concentration in CD1 mouse assessed as (2R,3R,4R,5R,6R)-5-acetamido-4-amino-2,3-difluoro-6-((1R,2R)-1,2,3-trihydroxypropyl)tetrahydro-2H-pyran-2-carboxylic acid at 30 mg/kg, po measured at 20 mins by reversed-phase UPLC/MS analysis
- Assay type: ADME, organism-based
- Set-up: dose 30 mg/kg, route oral
- settings: in vivo
assay_endpoint: concentration (nM)

[[record]]
input_smiles = "CCCCCCCCCCCCOC(=O)[C@]1(F)O[C@@H]([C@H](O)[C@H](O)CO)[C@H](NC(C)=O)[C@@H](N)[C@H]1F"
measurement = 440

[[record]]
input_smiles = "CC(=O)N[C@@H]1[C@@H](N)[C@@H](F)[C@](F)(C(=O)NCc2cccc(F)c2)O[C@H]1[C@H](O)[C@H](O)CO"
measurement = 310

[[record]]
input_smiles = "CC(=O)N[C@@H]1[C@@H](N)[C@@H](F)[C@](F)(C(=O)NCc2ccccc2)O[C@H]1[C@H](O)[C@H](O)CO"
measurement = 270

[[record]]
input_smiles = "CC(=O)N[C@@H]1[C@@H](N)[C@@H](F)[C@](F)(C(N)=O)O[C@H]1[C@H](O)[C@H](O)CO"
measurement = 710

[[record]]
input_smiles = "CCOP(=O)(OCC)OC[C@@H](O)[C@@H](O)[C@@H]1O[C@@](F)(C(=O)OC)[C@H](F)[C@H](N)[C@H]1NC(C)=O"
measurement = 1000

[[record]]
input_smiles = "CC(=O)N[C@@H]1[C@@H](N)[C@@H](F)[C@](F)(C(=O)OCCC(=O)N(C)C)O[C@H]1[C@H](O)[C@H](O)CO"
measurement = 1400

